# Experimental Protocol: yeast display, Sf9 membrane polyspecificity reagent, FACS + sequencing; frameworks hold sequencing errors
Measured Metric: polyreactivity (PSR sort gate)

These recorded examples may help you get a feel for the data.
Would you kindly share the measured polyreactivity (PSR sort gate) for QVQLVESGGGLVQAGGSLRLSCAASGFIFADYTMGWYRQAPGKERELVAAITWSGDSTYYADSVKGRFTISRDNAKNTVYLQMNSLKPEDTAVYYCNAVNDWYYAYYGVTSFRSYDYWGQGTQVTVSS ?
low polyreactivity

Same lookup for QVQLVESGGGLVQAGGSLRLSSAASGRTFHRNAMGWYRQAPGKERELVAAITGDGRTNYADSVKGRFTISRDNAKNTVYLQMNSLKPEDTAVYYCAARFSYRSYDYWGQGTQVTVSS , please.
low polyreactivity

Same lookup for QVQLVESGGGLVQAGGSLRLSCAASGRTFRFNAMGWYRPAPGKERELVAAIRWSGSSTYYADSVKGRFTISRDNAKNTVYLQMNSLKPEDTAVYYSAKRVKTTWFGYWGQGTQVTVSS , please.
high polyreactivity

Same lookup for QVQLVESGGGLVQAGVSLRLSCAASGFIFRTYAMGWYRQAPGKEREVVAAITGRGGTTYYADSVKGRFTISRDNAKNTVYLQMNSLKPEDTAVYYCAARGRVSVNTQRYAAYNYLGQGTQVTVSS , please.
high polyreactivity

More entries:
Would you kindly share the measured polyreactivity (PSR sort gate) for QVQIEESRVGLVQAGGSLRLSCAASGSIIYENMGWYRPAPGKERELVASISWSGTSTYADSVKGRFTMTRDNAKTTVYLLMNSLKPEDTAVYSCAAYPYPFYQSKYLGIGYGFWGQGTQVTVSS ?
high polyreactivity

Same lookup for QVQLVESGGGLVQAGGSLRLSCAASGRTFYSYAMGWYSQAPGKERELVATISSNADGTYYADSVKGRFTISRDNAKNTVYLQMNSLKPEDTAVYYCAATYRRSHRYNYWGQGTQVTVSS , please.
high polyreactivity

Same lookup for QVQLVESGVGLVQAGGRLRLSCAASGLIFNDNMGWYRQSPGKEREVVAAISSSGGSTSYADSVKGRFTISRDNAKNTVYLQMNSLKPEDTAVYYCAADSYPAYLGFVGFDYWGQGTQVTVSS , please.
low polyreactivity

Same lookup for QVQLVESGGGLVQGGGSLRLSCAASGSIFYPYAMGWYRQAPGKERELVARITSSTGSTYYADSVKGRCTISRATAKNTVYLQMTSLKPEDTAVYYCNARRQRNKSYNYWGQGTQVTVSS , please.
high polyreactivity

Same lookup for QVQLVESGGGLVQAGGSLRLSCAASGSTLRPYGMGWYRQATGKERELVPTIRSSSGRTYYADSVKGRFTISRDNAKNTVYLLMNSLKPDDTAVYYCNAKYVWYTQRDAYIYDYWGQGTQVTVSS , please.
high polyreactivity

Same lookup for QVQLVESGGGLVQAGGSLRLSCAASGSTFKYYAMGWYRQAPGKERELVAAITWRGGSTYYADSVKGRFTISRDNAKNTVYLQMNSLKPEDTAVYYCNRAYLYAYRSWWETYLRGDYWGQGTQVTVSS , please.
high polyreactivity

Same lookup for QVQLVESGGGLVQAGGSLRLSCSASGSIIVSYTMGWYRQAPGKERELVAAISGGGASTYYADSVKGRFTISRDNAKNTVYLQMNSLKPEDTAVYYCNADGYYDMDYCGQGTQVTVSS , please.
low polyreactivity

====

# Experimental Protocol: yeast display, Sf9 membrane polyspecificity reagent, FACS + sequencing; frameworks hold sequencing errors
Measured Metric: polyreactivity (PSR sort gate)

Would you kindly share the measured polyreactivity (PSR sort gate) for QVQLVESGGGLVQAGGSLRLSCAGSGRIFLDKAMGWYRQAPGKERELVAAINGSGGSTYYADSVKGRFTISRDNAKNTVYLQMNSLKPKIPRSITATKRYIQSLWGFDYWGQGTQVTVSS ?
low polyreactivity

Same lookup for QVQLVESGGGLVQAGGSLRLSCAASGSIFNVYAMGWYRQAPGKERELVAAISDGDGSTFYADSVKGRFTISRDNAKNTVYLQMNSLKPEDTAVYYCAKDYRWDRKFDYWGQGTQVTVSS , please.
low polyreactivity

Same lookup for QVQLVEAGGGLVQAGGSLRLSCAASGYIFFFYAMGWYRQAPGKERELVASITYRGGSTYYADSVKGRFTISRDNAKNTVYLQMNSLIPEDTAVYYCNVDGGGPLGPQGFPFDYWGQGTQVTVSS , please.
low polyreactivity

Same lookup for QVQLVESGGGLVQAGGSLRLSCAASGLTFIYYAMGWYRQAPGKERELVAAISVSGGSTYYADSVKGRFTISRDNAKNTVYLQMNSLKPEDTAVYYCAADWFVHIPRYQYSFDYWGQGTQVTVSS , please.
low polyreactivity

Same lookup for QVQLVESGGGLVQAGGSLRLSCDASGSIFIANAMGWYRQAPGKEREFVAAINWSRGSTYYADSVKGRFTISRDNAKNTVYLQMNSLKPEDTAVYYCNAASLKFTSPVRFGYWGQGTQVTVSS , please.
high polyreactivity

More entries:
Would you kindly share the measured polyreactivity (PSR sort gate) for QVQLVESGGGLVQAGGSLRLSCAASGFTFGSNAMGWYRQAPGKERELVADITVSGGSTYYADSVKGRFTISRDNAKNTVYLQMNSLKPEDTAVYYCAKDPRTYLDYDYWGQGTQVNVSS ?
low polyreactivity

====

# Experimental Protocol: yeast display, Sf9 membrane polyspecificity reagent, FACS + sequencing; frameworks hold sequencing errors
Measured Metric: polyreactivity (PSR sort gate)

These recorded examples may help you get a feel for the data.
Would you kindly share the measured polyreactivity (PSR sort gate) for QVQLVESGGGLVQAGGSLRLSCAASGSTIRYYAMGWYRQAPGKEREFVAAITRSGGRTYYADSVKGRFTISRDNAKNTVYLQMNSLKPEDTADYYCAKVLYSPIGKYDYWGQGTQVTVSS ?
high polyreactivity

Same lookup for QVQLVESGGGLVQAGGSLRLSCAASGFTFYPYARGWYRQAPGKERELVAAISNGDSTHYADSVKGRFTISRDNAKNTVYLQMNSLKPQDTAVYYCNAYTRYPFYFVTSKYDYWGQGNQVTVSS , please.
low polyreactivity

Same lookup for QDQLVESVGGLVQAGGSLRLIFAASGSILTFYAMGWYRQAPGKERELVAAITWRGCSTYYADSVKGRFTISRDNEKNTVYLQMNSLKPEDTAVYYCAAERYGPRYDYWGQGTQVTLSS , please.
high polyreactivity

Same lookup for QVQIVESGGALVQAGGGHRLSCAASGRTFTYNAMGWYRQAPGKERELVAAITSGGSTNYADSVKGRFTISRDNAKNTVYLQMNSLKPEDTAVYYCAARRVYYSYRRYYYWGQGTQVTVSS , please.
low polyreactivity

More entries:
Would you kindly share the measured polyreactivity (PSR sort gate) for QVQLVESGGGLLQAAGSLRLSCAASGIIFHIYAMGWYRQAPGKERELVAAISTGSSTYYADSVKGRFTISRDNAKNTVYLQMKSLKPEDTAVYYCNAVSRLLWVKGFDYWGQGTQVTVSS ?
low polyreactivity

Same lookup for QVQLVESGGGLVQAGGSLRLSCAASGRILVVNAMGWYRQAPGKERELVAAISTTGGRTYYADSVKGRFTISRDNAKNTDYLQMISLKPEDTAVYYCAKDDGRFGRTHEHDYWGHGTQVTVSS , please.
high polyreactivity

Same lookup for QVQLVESGGGLVQAGGSLRLSCAASGRNFRVNAMGWYTQAPGKERELVAAISWIGGRTYYADSVKGRFTISRDNAKNTVYLQMNSLKPEDTAVYYCAAGTRRYYYWKYDYWGQGTQVTVSS , please.
high polyreactivity

Same lookup for QVQLVESGGALVQAGGSLRLSCAASGIILYYYAMGWYRQAPGKERELVAAISSGGNTYYADSVKGRFTISRDNAKNTVYLQMNSLKPEDTAVYYCAAVTVIGGEYDYWGQGTQVTVSS , please.
low polyreactivity

Same lookup for QVQLLESGGGLVQAGGSLRLSCAASGRIFSFYTMGWYRQAPGKERELVAAITWRGGSTYYADSVKGRFTISRDNAKNTVYLQMNSLKPEDTAVYYCAAEVYGAVYDYWGQGTQVTVSS , please.
low polyreactivity

Same lookup for QVQLVESGGGLVQAGGSLRLSCAASGSTFGYYAMGWYRQAPGKERELVAAITRGASTYYADSVNGRFTISRDNAKNTVYLQMNSLKPDDTAVYYCAFDTWKVQGASSRYRKMYYWGQGTQVTVSS , please.
low polyreactivity

Same lookup for QVQLVDSGGGLVQAGGSLRLSCAASGFTFTLNAMGWYRQAPGKERELVAGISSGGSTNYADSVKGRFTISRDNAKNTVYLQMNSLKPEDTAVYYCAADRGYVWRYDYWGEGTQVTVSS , please.
low polyreactivity

====

# Experimental Protocol: yeast display, Sf9 membrane polyspecificity reagent, FACS + sequencing; frameworks hold sequencing errors
Measured Metric: polyreactivity (PSR sort gate)

These recorded examples may help you get a feel for the data.
Would you kindly share the measured polyreactivity (PSR sort gate) for QVQLVESGGGLVQAGGSLRLSCAASGRIFYRYAMGWYRQAPGKERELVAGITRGGSTYYADSVKGRFTISRDNAKNTVYFQMNSLKPEDTAVYYCNVRWSPAGTGLLDYWGQGTQVTVSS ?
high polyreactivity

Same lookup for QVQLVESGGGLVQAGGSLRLSCAASGRISPKNAMGWYRQAPGKERELVATIRKIGGRTYYADSVKGRFTISRDNAKNTVYLQMNSLKPEDTAVYYCATDFAPSYYPDRFDYRGQGTQVTVSS , please.
low polyreactivity

Same lookup for QVHLQESGGGLVQAVGSLRLSCAASGNISEYYDMGWYRQAPGKERKFVAGIDFGAITNYADSVKGRFTISRDNAKNTEYLQMRSLKPEDTAVYYCAAGVYDWYAYDYWGQGTQVTVSS , please.
high polyreactivity

Same lookup for QVQLVESGGGLDQAGGSLRLSCAASGSTFYYNTMGWYRQAPGKERELVAAISWRGVSTYYADSVKGRFTISRDNAKNTVYLQMNSLKPEDTAVYYCNAVHHYPEHIGGGYWGQGTQVTVSS , please.
low polyreactivity

Same lookup for QVKLVESAGGLVQAGGSLRLSCPASGSTFPKYPMGWSRQEPGKERELVAAITWRGGSTYYADSVKGRFTISRDNAKNTVYLQMISLNPEDTAVYYCAAVPYYPSRMDYWGQGTQVTVSS , please.
low polyreactivity

Same lookup for QVQLVESGGGLVQAGGSLRLSCAASGSTFRYYAMGWYREAPGKEREFVAAISLRAGSTYYADSVKGRFTISRDNAKNTVYLQMNSLKPEDTAVYYCAARRASYGTRRYDYWGQGTQVTVSS , please.
high polyreactivity

Same lookup for QVQLVESGGGLVQEGGSLRLSCAASGSTFERNAMGWYRQAPGKERELVAAISAIGDSTYYADSVKGRFTISRDNAKNTVYLQMKSLNPEDTAVYYCAARYTRYHIGRGYYYWGQGTQVTVSS , please.
high polyreactivity

Same lookup for QVQLVESGGGLDQAGGSLRLSCASSGFTFGRYAMGWYRQAPGKERELVDTITRSGVNTYYADSVKGRFTISRDNAKNTVYLQMNSLKPEDTAVSYCNVRYPLATYRLPAGEFDYWGQGTQVTVSS , please.
high polyreactivity

More entries:
Would you kindly share the measured polyreactivity (PSR sort gate) for QVQLVESGGGLVQAGGSLRLSCAASGSILLYYSMGWYIQAPGKERELVARISITRDSTYYADSVKGRFTISRDNAKNTVYLQMYSLNPEDTAVYFCAADPVLHYYPSYYTGALDYYWGQGTQVTVSS ?
low polyreactivity

Same lookup for QVQLVESGGGLVQAGGSLRLSCAASGFTFNGNAMGWYRQAPGKERELVAAISYSGGSTYYADSVKGRFTISRDNAKNTVYLQMNSLKPVDTAVFYCAADRTAYSVRAFTKDHSGHDYCGQGTQVTVSS , please.
low polyreactivity

Same lookup for QVQLVESGGGLVQAGGSHRLSCAASGSTFVVYSLGWYRQAPGKERELVAAITSSGGRTYYADSVKGRFTISRDNAKNTVYLQMNSLKPDDTAVYYGNAVYSRQSSNKGEYWGQGTQVTVSW , please.
high polyreactivity
